# System: T-47D breast
# assay-procedure: NCI tumour cell line growth inhibition, 48 h; in the data active = GI50 below about 0.43 µM; inactive = the rest
Possible outcomes: active, inactive

structure-notation | category-label
Cc1cc2nc(C(Cl)Cl)nc(-c3ccccc3)n2n1 | inactive
CCN1CCN(c2ccc(Nc3ncc4ccc5ncn(C(C)C)c5c4n3)nc2)CC1 | active
CC#CC(=O)N1CC[C@@H](n2c(=O)n(-c3ccc(Oc4ccccc4)cc3)c3c(N)ncnc32)C1 | inactive
C/C(=C\c1ccn(-c2ccc(N)cc2F)n1)[C@@H]1C[C@@H]2O[C@]2(C)CCC[C@H](C)[C@H](O)[C@@H](C)C(=O)C(C)(C)[C@@H](O)CC(=O)O1 | active
Nc1ccc(-c2ccc(-c3nc4cc(Cl)c(Cl)cc4[nH]3)cc2)cc1 | active
